B1: SNURF (parent)
chain: QVPVVDFQAELRQAFLAETPRGG

variants of: B1; experiment: protein stability index of a GFP-peptide fusion (GPS, HEK-293T) (PSI 1-6); higher = more stable; settings: c terminus: native;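 note: lentivirally expressed fusions sorted by FACS into six bins by GFP to DsRed ratio, PSI derived from sequencing read proportions per bin multiplied by bin number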
metric: protein stability index
Write the value as a bare number.

Solved entries:
E18C	3.41
E18P	3.59
Q8C	3.49
G23C	1.66

// sample "F7T" , its protein stability index was 4.49

// sample "F15T" , its protein stability index was 3.19

// sample "E10K" , its protein stability index was 2.48
